These measurements were taken from patent US4458079A.

system: Microsporum canis; test: MIC in Sabouraud broth (broth dilution); type: cell-based; settings: 120 h, strain A 9872, five days at 28°, read-out: Minimum Inhibitory Concentration (MIC)
Assay metric: MIC (µg/mL)
Answer with a number only, understood to be in µg/mL.

Worked cases, answers included:
Molecule smiles	Assay metric	Units	Endpoint value
Cl.Clc1ccc(CSC(Cn2ccnc2)SCc2ccc(Cl)cc2)cc1	MIC	µg/mL	0.032
CSc1ccc(CSC(Cn2ccnc2)SCc2ccc(SC)cc2)cc1.Cl	MIC	µg/mL	0.063
Cc1ccc(CSC(Cn2ccnc2)SCc2ccc(C)cc2)cc1.Cl	MIC	µg/mL	0.063

Query: MIC; subject: Clc1ccc(CSC(Cn2ccnc2)SCc2ccc(Cl)cc2Cl)c(Cl)c1
0.032
